species on record: Rattus norvegicus; experiment: Reduction of Astrocyte intracellular chloride concentration at 0.05 mM.; type: functional, organism-based; details: 0.05 mM
test_readout: Concentration (%)
Write the answer as a number in %, unit excluded.

Which Concentration value is on record for CN1C(=O)c2ccc(OCCCC(=O)O)cc2C1=O ?
118

How about CCN1C(=O)c2ccc(OCCCC(=O)O)cc2C1=O ?
76

Cool, now CCCN1C(=O)c2ccc(OCC(=O)O)cc2C1=O
110

Entry to check: CCCN1Cc2cc(OCCCC(=O)O)ccc2C1=O
76

// query: CCCCN1Cc2cc(OCCCC(=O)O)ccc2C1=O
76

Further, for CCCCCN1C(=O)c2ccc(OCCCC(=O)O)cc2C1=O ?
77

Now try O=C(O)CCCOc1ccc(C(=O)NC2CCCC2)c(Cl)c1Cl .
78

Next entry: O=C(O)COc1ccc2c(c1)C(=O)N(C1CCCCC1)C2=O
87
